TARGET SYSTEM: human sodium channels Nav 1.7 (Homo sapiens, UniProt Q15858)
Sequence (Q15858 whole entry): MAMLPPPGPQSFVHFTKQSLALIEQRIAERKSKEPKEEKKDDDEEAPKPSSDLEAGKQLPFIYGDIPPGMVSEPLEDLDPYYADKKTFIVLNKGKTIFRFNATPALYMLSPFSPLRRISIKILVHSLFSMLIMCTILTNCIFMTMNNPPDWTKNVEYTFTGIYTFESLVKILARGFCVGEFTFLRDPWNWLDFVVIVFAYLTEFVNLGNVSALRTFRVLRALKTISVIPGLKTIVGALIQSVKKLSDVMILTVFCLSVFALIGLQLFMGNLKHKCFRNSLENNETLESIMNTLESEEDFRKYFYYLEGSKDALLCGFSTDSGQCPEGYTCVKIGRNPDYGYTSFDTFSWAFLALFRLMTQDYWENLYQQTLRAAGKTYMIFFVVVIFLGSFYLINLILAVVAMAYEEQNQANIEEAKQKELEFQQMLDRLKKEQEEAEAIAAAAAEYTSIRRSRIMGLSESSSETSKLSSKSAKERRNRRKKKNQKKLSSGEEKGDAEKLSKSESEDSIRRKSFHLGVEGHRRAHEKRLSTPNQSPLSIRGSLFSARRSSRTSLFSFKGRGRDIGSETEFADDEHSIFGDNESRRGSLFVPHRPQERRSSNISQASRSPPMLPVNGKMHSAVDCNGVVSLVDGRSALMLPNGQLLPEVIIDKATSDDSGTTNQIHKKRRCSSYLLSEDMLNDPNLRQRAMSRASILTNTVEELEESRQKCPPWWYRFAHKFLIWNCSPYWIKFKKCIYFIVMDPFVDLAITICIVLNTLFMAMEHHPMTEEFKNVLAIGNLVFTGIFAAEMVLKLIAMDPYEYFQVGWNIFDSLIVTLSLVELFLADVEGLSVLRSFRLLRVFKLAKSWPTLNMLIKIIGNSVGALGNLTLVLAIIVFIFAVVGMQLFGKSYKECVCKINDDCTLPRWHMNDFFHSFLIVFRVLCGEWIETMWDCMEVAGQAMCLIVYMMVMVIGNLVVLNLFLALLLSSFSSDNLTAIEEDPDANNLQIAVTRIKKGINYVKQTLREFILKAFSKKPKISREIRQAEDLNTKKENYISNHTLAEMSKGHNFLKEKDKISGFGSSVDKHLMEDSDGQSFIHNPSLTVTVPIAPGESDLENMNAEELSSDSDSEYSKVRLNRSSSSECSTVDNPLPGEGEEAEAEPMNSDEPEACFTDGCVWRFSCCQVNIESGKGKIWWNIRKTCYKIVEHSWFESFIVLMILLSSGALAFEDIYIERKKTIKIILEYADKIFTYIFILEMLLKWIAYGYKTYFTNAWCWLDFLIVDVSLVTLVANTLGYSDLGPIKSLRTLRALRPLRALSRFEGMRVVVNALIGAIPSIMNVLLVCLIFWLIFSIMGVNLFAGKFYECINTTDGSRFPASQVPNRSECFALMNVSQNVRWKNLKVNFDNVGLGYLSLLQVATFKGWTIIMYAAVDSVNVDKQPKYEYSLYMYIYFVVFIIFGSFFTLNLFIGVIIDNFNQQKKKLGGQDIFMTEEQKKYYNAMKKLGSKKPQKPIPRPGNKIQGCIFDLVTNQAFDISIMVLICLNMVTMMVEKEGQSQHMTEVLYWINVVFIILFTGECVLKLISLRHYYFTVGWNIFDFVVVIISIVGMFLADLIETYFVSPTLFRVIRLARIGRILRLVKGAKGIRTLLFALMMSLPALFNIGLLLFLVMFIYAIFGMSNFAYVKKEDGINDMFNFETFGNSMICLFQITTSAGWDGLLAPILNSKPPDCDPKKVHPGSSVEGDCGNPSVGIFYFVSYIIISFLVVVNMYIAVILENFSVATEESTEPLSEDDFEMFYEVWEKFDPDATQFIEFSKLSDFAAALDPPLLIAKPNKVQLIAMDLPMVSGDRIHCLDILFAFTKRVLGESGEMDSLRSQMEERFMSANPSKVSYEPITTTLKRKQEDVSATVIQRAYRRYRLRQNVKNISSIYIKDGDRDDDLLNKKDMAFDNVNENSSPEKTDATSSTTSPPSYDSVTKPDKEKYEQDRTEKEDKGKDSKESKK
EXPERIMENT: Automated whole-cell voltage-clamp (ScreenPatch 384P) sodium current block, Nav 1.7
CONDITIONS USED: CHO cells stably expressing human Nav 1.7; inactivation step -40 mV for 8 seconds, test step 0 mV (TP1A); exposure at least five minutes; room temperature; mean if two or more assays; read-out: Nav1.7 IC50
Below is a list of entries, each paired with its recorded IC50 value.

• CCOc1ccc(-c2cncc(C(=O)NOCc3cc(OC)ccc3C)n2)cn1 [Compound 47] = > 1 µM
• [2H]C([2H])([2H])COc1ccc(-c2cncc(C(=O)NOCc3cc(OC)ccc3F)n2)cn1 [Compound 49] = > 1 µM
• CCOc1ccc(-c2cncc(C(=O)NOCc3ccnn3C(C)C)n2)cn1 [Compound 64] = > 1 µM

Next item in the queue.
Sample CCOc1ccc(-c2cncc(C(=O)NOCc3cc(OC)ccc3C3CC3)n2)cc1 [Compound 15] ; IC50 observed: < 0.5 µM

###

Item-by-item account of pIC50
TARGET SYSTEM: human sodium channels Nav 1.7 (Homo sapiens)
EXPERIMENT: Automated whole-cell voltage-clamp (ScreenPatch 384P) sodium current block, Nav 1.7
CONDITIONS USED: CHO cells stably expressing human Nav 1.7; inactivation step -40 mV for 8 seconds, test step 0 mV (TP1A); exposure at least five minutes; room temperature; mean if two or more assays; read-out: Nav1.7 IC50
pIC50: −log10 of the molar value.

* O=C(NOCc1ccncc1)c1cncc(-c2ccc(OC(F)(F)F)nc2)n1 | > 6.30
* CCOc1ccc(-c2cncc(C(=O)NOCc3cc(C(C)N)ccc3F)n2)cn1 (stereo not drawn) | < 6.00
* COc1ccc(F)c(CONC(=O)c2cncc(-c3ccc([S+](C)[O-])cc3)n2)c1 (stereo not drawn) | < 6.00

The compound COc1ccc(F)c(CONC(=O)c2nccc(-c3ccc(OC(F)F)nc3)n2)c1 showed pIC50 equal to < 6.00

Reported pIC50 of COc1ccc(F)c(CONC(=O)c2cncc(-c3ccc(OC(C)C)cc3)n2)c1 : > 6.30

Form field pIC50, entry COc1cncc(CONC(=O)c2cncc(-c3ccc(OC(F)F)cc3)n2)c1 : < 6.00

Reported pIC50 for COc1cnc(F)c(CONC(=O)c2cncc(-c3ccc(OC(F)F)nc3)n2)c1 was < 6.00

###

Let's look at some compounds and their measured IC50.
TARGET SYSTEM: human sodium channels Nav 1.8 (Homo sapiens)
Sequence (Q9Y5Y9 whole entry): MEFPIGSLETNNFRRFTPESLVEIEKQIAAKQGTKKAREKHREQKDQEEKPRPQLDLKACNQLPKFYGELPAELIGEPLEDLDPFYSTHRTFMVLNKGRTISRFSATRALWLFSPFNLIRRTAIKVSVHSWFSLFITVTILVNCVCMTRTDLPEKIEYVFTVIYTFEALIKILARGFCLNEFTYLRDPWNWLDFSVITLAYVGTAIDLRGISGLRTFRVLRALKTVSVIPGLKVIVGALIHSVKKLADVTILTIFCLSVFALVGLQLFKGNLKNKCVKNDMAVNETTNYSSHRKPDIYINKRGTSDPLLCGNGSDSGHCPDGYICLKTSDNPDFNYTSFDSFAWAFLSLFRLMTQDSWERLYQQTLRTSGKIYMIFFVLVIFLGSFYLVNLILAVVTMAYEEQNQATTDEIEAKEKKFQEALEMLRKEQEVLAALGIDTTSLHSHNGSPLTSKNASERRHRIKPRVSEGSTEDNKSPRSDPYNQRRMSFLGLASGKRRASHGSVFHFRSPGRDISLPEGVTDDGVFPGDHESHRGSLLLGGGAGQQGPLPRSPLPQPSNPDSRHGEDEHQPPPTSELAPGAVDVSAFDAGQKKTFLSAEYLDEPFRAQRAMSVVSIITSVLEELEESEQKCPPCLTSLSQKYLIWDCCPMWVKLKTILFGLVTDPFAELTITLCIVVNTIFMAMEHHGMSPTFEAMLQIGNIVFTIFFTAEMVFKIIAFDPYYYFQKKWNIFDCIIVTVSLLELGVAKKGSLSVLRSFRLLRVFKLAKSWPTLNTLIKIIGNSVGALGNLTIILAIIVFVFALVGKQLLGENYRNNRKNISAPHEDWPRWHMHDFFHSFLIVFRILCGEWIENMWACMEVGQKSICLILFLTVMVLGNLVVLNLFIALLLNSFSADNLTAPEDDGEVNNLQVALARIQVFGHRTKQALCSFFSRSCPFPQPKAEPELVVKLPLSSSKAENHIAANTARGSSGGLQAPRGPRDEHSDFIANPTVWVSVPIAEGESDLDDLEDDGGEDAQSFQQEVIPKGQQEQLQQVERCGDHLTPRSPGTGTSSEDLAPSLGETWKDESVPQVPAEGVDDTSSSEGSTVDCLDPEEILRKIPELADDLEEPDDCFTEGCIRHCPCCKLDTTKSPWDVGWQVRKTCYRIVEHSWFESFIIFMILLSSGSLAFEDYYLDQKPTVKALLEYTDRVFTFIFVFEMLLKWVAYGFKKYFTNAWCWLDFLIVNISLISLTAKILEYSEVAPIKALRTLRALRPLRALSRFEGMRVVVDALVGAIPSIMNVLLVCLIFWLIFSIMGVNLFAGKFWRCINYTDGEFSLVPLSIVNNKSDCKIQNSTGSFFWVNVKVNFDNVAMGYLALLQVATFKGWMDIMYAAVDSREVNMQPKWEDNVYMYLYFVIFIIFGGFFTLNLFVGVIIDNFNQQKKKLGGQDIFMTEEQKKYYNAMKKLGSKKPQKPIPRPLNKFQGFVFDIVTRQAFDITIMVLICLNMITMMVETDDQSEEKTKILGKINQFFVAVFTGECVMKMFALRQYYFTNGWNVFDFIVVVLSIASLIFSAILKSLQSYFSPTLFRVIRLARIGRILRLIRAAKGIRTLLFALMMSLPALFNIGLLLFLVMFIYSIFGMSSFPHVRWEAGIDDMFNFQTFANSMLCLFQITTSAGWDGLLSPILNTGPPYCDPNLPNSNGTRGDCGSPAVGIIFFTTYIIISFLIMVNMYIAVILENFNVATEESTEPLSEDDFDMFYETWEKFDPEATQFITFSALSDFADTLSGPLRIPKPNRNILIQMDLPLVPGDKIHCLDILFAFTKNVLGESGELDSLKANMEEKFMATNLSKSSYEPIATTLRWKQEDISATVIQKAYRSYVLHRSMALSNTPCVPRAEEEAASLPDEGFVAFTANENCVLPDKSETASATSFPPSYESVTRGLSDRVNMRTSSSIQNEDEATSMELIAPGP
EXPERIMENT: Automated whole-cell voltage-clamp (ScreenPatch 384P) sodium current block, Nav 1.8
CONDITIONS USED: CHO cells stably expressing human Nav 1.8; inactivation step -40 mV for 8 seconds, test step 10 mV (TP1A); exposure at least five minutes; room temperature; mean if two or more assays; read-out: Nav1.8 IC50

# annotated cases, reported IC50 shown
* CCOc1ccc(-c2nccc(C(=O)NOCc3cc(OC)cnc3F)n2)cn1 [Compound 110] | < 500 nM
* CCOc1ccc(-c2cnc(O)c(C(=O)NOCc3cc(OC)ccc3F)n2)cn1 [Compound 101] | > 1000 nM
* COc1ccc(F)c(CONC(=O)c2cncc(-c3ccc(OC4CNC4)cc3)n2)c1 [Compound 22] | > 1000 nM

Reported IC50 for CCOc1ccc(-c2cncc(C(=O)NOCc3cc(OC)ccc3F)n2)c(C)c1 [Compound 86] was < 500 nM

CCOc1ccc(-c2cncc(C(=O)NOCc3cc(OC)cnc3F)n2)cn1 [Compound 38] has a reported IC50 of < 500 nM

Item: CCOc1ccc(-c2cccc(C(=O)NOCc3cc(OC)ccc3F)n2)cn1 [Compound 106] | IC50: > 1000 nM

###

TARGET SYSTEM: human sodium channels Nav 1.8 (Homo sapiens)
EXPERIMENT: Automated whole-cell voltage-clamp (ScreenPatch 384P) sodium current block, Nav 1.8
CONDITIONS USED: CHO cells stably expressing human Nav 1.8; inactivation step -40 mV for 8 seconds, test step 10 mV (TP1A); exposure at least five minutes; room temperature; mean if two or more assays; read-out: Nav1.8 IC50
pIC50: −log10 of the molar value.
ENDPOINT LABEL: pIC50

Solved entries:
* CCOc1ccc(-c2cncc(C(=O)NOCc3cc(OC)cc(OC)c3)n2)cc1 | < 6.00
* COc1ccc(F)c(CONC(=O)c2cncc(-c3ccc(OCCC4CN(C)C4)cc3)n2)c1 | > 6.30

Continue with the next compound.
Form: compound = CCOc1ccc(-c2cncc(C(=O)NOCc3ccccc3O)n2)cn1 ; pIC50 = < 6.00
